- SYSTEM TESTED: hLPAR1 (human lysophosphatidic acid receptor 1) (Homo sapiens, UniProt Q92633)
- Sequence (Q92633 whole entry): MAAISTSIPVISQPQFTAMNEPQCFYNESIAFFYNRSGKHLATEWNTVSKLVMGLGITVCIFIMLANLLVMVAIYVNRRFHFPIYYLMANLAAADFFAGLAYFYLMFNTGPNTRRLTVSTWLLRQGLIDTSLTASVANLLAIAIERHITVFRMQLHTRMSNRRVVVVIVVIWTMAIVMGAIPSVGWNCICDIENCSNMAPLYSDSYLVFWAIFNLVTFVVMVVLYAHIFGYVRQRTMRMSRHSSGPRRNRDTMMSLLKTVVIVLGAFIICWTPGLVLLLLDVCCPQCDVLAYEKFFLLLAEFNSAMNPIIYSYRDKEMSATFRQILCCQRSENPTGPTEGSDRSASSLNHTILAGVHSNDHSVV
- ASSAY EXPLANATION: FLIPR assay of intracellular calcium increase induced by activation of hLPAR1 expressed in CHO-K1 cells
- Format: cell-based
- RUN PARAMETERS: CHO-K1 cells expressing hLPAR1, agonist oleoyl-L-α-lysophosphatidic acid 1 μM; read-out: LPAR1 IC50
Exercise: for every item that follows, state its recorded IC50.

Documented IC50 of Cc1nc(-c2c(Cl)nn(C)c2COC(=O)N(C)C2CCCC2)ccc1O[C@H]1CCC[C@H](C(=O)O)C1 (racemic) : < 50 nM

Notebook: CN(C(=O)OCc1ocnc1-c1ccc(O[C@H]2CCC[C@H](C(=O)O)C2)cc1)C1CCCC1 (racemic) , IC50 read as 300 to 10000 nM

Entry under test: CN(C(=O)OCc1c(-c2ccc(O[C@H]3CCC[C@H](C(=O)O)C3)c(N)n2)cnn1C)C1CCC1 (racemic) . Its IC50 was 300 to 10000 nM

Documented IC50 of Cc1nc(-c2c(C(F)(F)F)nn(C)c2COC(=O)N(C)C2CCCC2)ccc1O[C@H]1CCC[C@H](C(=O)O)C1 (racemic) [Compound 33] : < 50 nM

Short answer for Cc1nc(-c2ncnc(C)c2COC(=O)N(C)C2CCCC2)ccc1O[C@H]1CCC[C@H](C(=O)O)C1 (racemic) : IC50 was < 50 nM

get_value(item= Cc1nc(-c2cnnc(COC(=O)N(C)C3CCCC3)c2)ccc1O[C@H]1CCC[C@H](C(=O)O)C1 (racemic) , readout=IC50) returns < 50 nM

// IC50 value for CN(C(=O)OCc1c(-c2ccc(O[C@H]3CCC[C@H](C(=O)O)C3)c(O)n2)cnn1C)C1CCCC1 (racemic) : 300 to 10000 nM
